ASSAY_NOTES: Tissue distribution of TA in tumor-bearing nude mice (GC-MS/MS)
Type: in vivo
RUN_PARAMETERS: BALB/c nude, mouse, spleen, intravenous; TA measured after treatment of nude mice with mPEG2K-SA-TA; dose group not stated; read-out: tissue exposure to TA in spleen
ENDPOINT_NAME: concentration at 21 days (ng/g)
Supply the numeric figure in ng/g, leaving out any unit text.

Exercise: Please report the recorded concentration at 21 days for CCCCCCCCCCCCCCCCCCCCCCCCCCCCCCO .
Key: 4170

====

ASSAY_NOTES: Pharmacokinetics of TA in rats after i.v. administration
Type: in vivo, Sprague–Dawley (SD) rats
RUN_PARAMETERS: both sexes, Sprague-Dawley, rat, plasma, iv, total TA, 3 mg/kg TA equivalent, read-out: elimination half-life (t1/2) (converted)
ENDPOINT_NAME: half-life

Exercise: Please report the recorded half-life for CCCCCCCCCCCCCCCCCCCCCCCCCCCCCCO .
Key: 2.57 h

Sourced from paper PMC6060375
